- measurement protocol: in vitro
- measurement parameters: human, hek293t cells
Field 'label' (enum: yes (1) / no (0)). Set to yes (1) when viability at 48 h, 25 µM is strictly under 70%; else no (0).

{"compound": "CCOc1cc(C=C(C#N)C(=O)N2CCCC2)cc(Cl)c1O", "classification": "no (0)"}
{"compound": "CC(Cl)C(=O)N(C)Cc1ncc(C2CC2)o1 (stereo not drawn)", "classification": "yes (1)"}
{"compound": "CC(Cl)C(=O)N(c1ccccc1)C1CCOC1 (stereo not drawn)", "classification": "yes (1)"}
{"compound": "C=CC(=O)N(C1CCCC1)C(C)c1nnc2ccccn12 (stereo not drawn)", "classification": "yes (1)"}
{"compound": "C=CC(=O)NC1CC(CC(F)(F)F)C1 (stereo not drawn)", "classification": "yes (1)"}

With those in mind, consider the next compound.
Request: For this compound, is viability at 48 h, 25 µM lower than 70%? C=CC(=O)NC(C)c1nnc(-c2ccccc2F)s1 (stereo not drawn)
Response: no (0)

====

- measurement protocol: in vitro
- measurement parameters: human, hek293t cells
Field 'label' (enum: class 1 / class 0). Set to class 1 when viability at 48 h, 25 µM is strictly under 60%; else class 0.

Request: For this molecule, is viability at 48 h, 25 µM lower than 60%? C=CC(=O)N(c1cc(C)ccc1C#N)C(C)C [2-A22]
Response: class 0

Request: For this molecule, is viability at 48 h, 25 µM lower than 60%? COc1ccc(CN(C)C(=O)CCl)cc1F [4-F03]
Response: class 1

Request: For this molecule, is viability at 48 h, 25 µM lower than 60%? Cc1cc(Cl)ccc1OC(C)C(=O)N1CCSSCC1 (centres unmarked) [10-J21]
Response: class 0

====

- measurement protocol: in vitro
- measurement parameters: human, hek293t cells
Note: every record was labeled by where its viability at 48 h, 25 µM sits among bucket 1 = under 50%, bucket 2 = from 50% up to 80%, bucket 3 = 80% and over

A selection of reference data follows.
{"molecule": "Cc1ccccc1NC(=O)C(C#N)=Cc1ccccc1Cl [8-N05]", "classification": "bucket 1"}
{"molecule": "O=C(CCl)N1CCN(C(=O)c2cn(C3CC3)nn2)CC1 [5-D03]", "classification": "bucket 1"}
{"molecule": "CC(Cl)C(=O)NCc1cnn2ccccc12 (centres unmarked) [7-M13]", "classification": "bucket 3"}

Request: Which class holds C=CC(=O)NCc1ccc2oc(=O)n(C)c2c1 [2-L15] ?
Response: bucket 2

Request: Which class holds CC(Cl)C(=O)NC1CCN(c2ccccc2C(F)(F)F)C1 (centres unmarked) [7-C17] ?
Response: bucket 2

Request: Which class holds COC(=O)[C@H]1[C@@H](C(=O)CCl)C1(C)C (racemic) [10-A11] ?
Response: bucket 2

Request: Which class holds CCCCNC(=O)C(C#N)=Cc1ccncc1 [8-P17] ?
Response: bucket 3

Request: Which class holds CC(Cl)C(=O)Nc1ccccc1-c1ccccc1 (centres unmarked) [4-G14] ?
Response: bucket 2

Request: Which class holds O=C(CCl)NCC1(c2ccc(F)cc2)CCCC1 [6-E18] ?
Response: bucket 1

Request: Which class holds CCOc1ccccc1C=C(C#N)C(=O)Nc1ccc(Cl)cc1 [8-B09] ?
Response: bucket 3

Request: Which class holds Cc1ccc(C(NC(=O)CCl)c2cccs2)cc1 (centres unmarked) [4-H16] ?
Response: bucket 1

Request: Which class holds Cc1nc2ccccc2n(CCCN(C)C(=O)CCl)c1=O [6-D04] ?
Response: bucket 1

Request: Which class holds CC(Cl)C(=O)N1CCOCC(n2cccn2)C1 (centres unmarked) [6-H22] ?
Response: bucket 3

Request: Which class holds C=CC(=O)NC(C(N)=O)c1ccccc1F (centres unmarked) [2-H19] ?
Response: bucket 2
